Target: MAGI2_2, Q86UL8
Sequence (Q86UL8 410-522): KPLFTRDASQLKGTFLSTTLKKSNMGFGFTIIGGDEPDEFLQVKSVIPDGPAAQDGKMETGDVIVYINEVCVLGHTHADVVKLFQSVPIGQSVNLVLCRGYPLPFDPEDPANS
Test: holdup assay
Set-up: key: below the threshold = too weak to quantify, mostly under pKd 3.1 to 4
Conditions: plain residues with an end cap or a label only (N-terminal biotin on a linker: ado-ado)
MEASUREMENT_NAME: pKd

Please review the following examples before continuing.
RGKNRRQSIF [CDK18, Q07002] ... below the threshold
HYPASPDSWV [CTNND2, Q9UQB3] ... below the threshold
SRPHTNETSL [MCC, P23508] ... 3.64
MLPANYVEAI [NEB, P20929] ... below the threshold
SGDGKTSVWI [GJC1, P36383] ... below the threshold

Item VYEVPVETKF [SLC26A3, P40879] has what recorded pKd?
below the threshold

Item SQDPKKPSRV [CBY2, Q8NA61] has what recorded pKd?
4.38

Item HLSTRQGTCV [ATRNL1, Q5VV63] has what recorded pKd?
4.73
